# credit: ChEMBL document CHEMBL4304836

- Tested on: Escherichia coli
- assayNotes: Antibacterial activity against Escherichia coli ATCC 25922 assessed as reduction in bacterial cell growth incubated for 24 hrs by two fold serial dilution
- Format: functional
- setupConditions: ATCC 25922, 24 h
valueKind: MIC (µg/mL)
// note: answer is a bare numeric in µg/mL

Record excerpt, results attached:
# MIC lookup, item CS(=O)(=NSC(F)(F)F)c1ccccc1 (stereo not given) 16

Queued: O=S(=NSC(F)(F)F)(c1ccccc1)N1CCCC1 (stereo not given) 128

Query O=S(=NSC(F)(F)F)(c1ccccc1)N1CCOCC1 (stereo not given) next 128

Now turn to the next compound.
Form field: reported MIC of O=S(=NSC(F)(F)F)(c1ccccc1)c1ccccc1 256

---

// MIC lookup, one value per entry
- System: Mycobacterium tuberculosis
- assayNotes: Antimycobacterial activity against Mycobacterium tuberculosis H37Rv assessed as reduction in bacterial cell growth incubated for 14 days by broth dilution method
- Format: functional
- setupConditions: 336 h

Write down the reported MIC of O=[N+]([O-])c1ccc(S(=O)(=NSC(F)(F)F)N2CCCCC2)cc1 (stereo unspecified) , test system: Mycobacterium tuberculosis. > 64 µg/mL

***
State its MIC on Mycobacterium tuberculosis: O=S(=NSC(F)(F)F)(c1ccccc1)c1ccccc1 4 to 8 µg/mL

Continue with O=S(=NC(F)(F)F)(c1ccccc1)c1ccccc1 > 64 µg/mL

Next record, please: Cc1ccc(S(=O)(=NSC(F)(F)F)N2CCCCC2)cc1 (stereo unspecified) 4 to 8 µg/mL

Next compound: CS(=O)(=NSC(F)(F)F)c1ccccc1 (stereo unspecified) 4 to 8 µg/mL

What do you get for O=S(=NSC(F)(F)F)(c1ccccc1)N1CCCC1 (stereo unspecified) ? 4 to 8 µg/mL

---

- Tested on: Mycobacteroides abscessus
- assayNotes: Antimycobacterial activity against Mycobacterium abscessus ATCC 19977 assessed as reduction in bacterial cell growth incubated for 3 days by broth dilution method
- Format: functional
- setupConditions: ATCC 19977, 72 h
Listed here: items and their measured MIC.

Fill blank: measured MIC of the compound O=[N+]([O-])c1ccc(S(=O)(=NSC(F)(F)F)N2CCOCC2)cc1 (stereo unspecified) is ____. 32 to 64 µg/mL

Another: Cc1ccc(S(=O)(=NSC(F)(F)F)N2CCCCC2)cc1 (stereo unspecified) > 64 µg/mL

What do you get for N=S(=O)(c1ccccc1)N1CCOCC1 (stereo unspecified) ? > 64 µg/mL

Request: N=S(=O)(c1ccc([N+](=O)[O-])cc1)N1CCCC1 (stereo unspecified) > 64 µg/mL

CS(=O)(=NSC(F)(F)F)c1ccccc1 (stereo unspecified) ? > 64 µg/mL

Now take the following compound into account.
Which MIC value is on record for O=[N+]([O-])c1ccc(S(=O)(=NSC(F)(F)F)N2CCCC2)cc1 (stereo unspecified) ? 16 to 32 µg/mL

---

- Tested on: Bacillus subtilis
- assayNotes: Antibacterial activity against Bacillus subtilis ATCC 6051 assessed as reduction in bacterial cell growth incubated for 24 hrs by two fold serial dilution
- Assay type: functional
- setupConditions: ATCC 6051, 24 h
This listing pairs compounds with measured MIC.

// solved cases for MIC follow
Return reported MIC; argument: CCN(CC)S(=O)(=NSC(F)(F)F)c1ccc([N+](=O)[O-])cc1 (stereo not drawn) 16 to 32 µg/mL

Then this compound: O=[N+]([O-])c1ccc(S(=O)(=NSC(F)(F)F)N2CCOCC2)cc1 (stereo not drawn) 128 to 256 µg/mL

Thanks! And CS(=O)(=NC(F)(F)F)c1ccccc1 (stereo not drawn) ? > 512 µg/mL

Could you do the same for CS(=N)(=O)c1ccccc1 (stereo not drawn) , please? > 512 µg/mL

Can you handle O=S(=NC(F)(F)F)(c1ccccc1)c1ccccc1 next? > 512 µg/mL

Also check O=[N+]([O-])c1ccc(S(=O)(=NSC(F)(F)F)N2CCCC2)cc1 (stereo not drawn) 64 µg/mL

Follow-up item: O=[N+]([O-])c1ccc(S(=O)(=NSC(F)(F)F)N2CCCCC2)cc1 (stereo not drawn) 64 µg/mL

Attention now turns to another entry.
Which MIC is listed for O=S(=NSC(F)(F)F)(c1ccccc1)N1CCOCC1 (stereo not drawn) ? 32 µg/mL
